test system: MDA-MB-231; test: Cell growth inhibition, CellTiter-Glo Luminescent Cell Viability Assay, MDA-MB-231; assay type: cell-based; conditions: MDA-MB-231 cells, 4 days incubation
property-name: IC50 (nM)

INSERT INTO measurements (compound, measurement_target, val) VALUES
  ('Cc1c(C#Cc2cnn(C[C@H]3CC[C@H](Nc4cccc5c4CN(C4CCC(=O)NC4=O)C5=O)CC3)c2)sc2c1C(c1ccc(Cl)cc1)=N[C@@H](C)c1nnc(C)n1-2 (stereo partly shown) [compound 171]', 'MDA-MB-231', 1);
